Tested on: human transcriptome
assayExplanation: Chem-CLIP-Map-Seq transcriptome-wide target profiling in live MDA-MB-231 cells
Format: cell-based
condition: 20 μM, 16 h, before excluding control probe overlap
reportedProperty: number of transcripts enriched (Chem-CLIP-seq) (transcripts)

| smilesEntry | experimentalValue |
| --- | --- |
| C#CCCC1(CCC(=O)Nc2nc(-c3ccc(-n4cccn4)cc3)cs2)N=N1 | 127 |
| C#CCCC1(CCC(=O)N2CCN(c3nncc4sccc34)CC2)N=N1 | 166 |
| C#CCCC1(CCC(=O)N(CCNC(=O)c2ccc(C)c(F)c2)Cc2ccncc2)N=N1 | 163 |
| C#CCCC1(CCC(=O)Nc2nnc(SCc3ccc(F)c4cccnc34)n2C)N=N1 | 92 |

###

testSystem: QSOX1 5′UTR hairpin (model of the QSOX1-a binding site)
assayExplanation: In vitro binding by fluorescence polarization, Cy5-labeled WT RNA
Set-up: species or system human
pKd: −log10 of the molar value.
reportedProperty: pKd

| molecule | testSystem | reportedProperty | experimentalValue |
| --- | --- | --- | --- |
| CCCNC(=O)CCC(=O)N(C)[C@H]1CC[C@@H](c2ccc(Cl)c(Cl)c2)c2ccccc21 [Compound F1-Amide] | QSOX1 5′UTR hairpin (model of the QSOX1-a binding site) | pKd | 4.59 |
| CCOC(=O)C1=C(Nc2ccccc2)S/C(=C\c2ccc(OCCOCCOCCOCCNC(=O)CCC(=O)N(C)[C@H]3CC[C@@H](c4ccc(Cl)c(Cl)c4)c4ccccc43)c(O)c2)C1=O | QSOX1 5′UTR hairpin (model of the QSOX1-a binding site) | pKd | 4.96 |
| CCOC(=O)C1=C(Nc2ccccc2)S/C(=C\c2ccc(O)c(OCCOCCOCCOCCNC(=O)CCC(=O)N(C)[C@H]3CC[C@@H](c4ccc(Cl)c(Cl)c4)c4ccccc43)c2)C1=O | QSOX1 5′UTR hairpin (model of the QSOX1-a binding site) | pKd | 5.00 |
